method.description: refractive index (Na D-line) (dimensionless)
study.conditions: 308.15 K; 101.33 kPa; Liquid
Would you mind telling me the reported refractive index of each entry?
Please reply with the number alone, leaving off any unit.

I'd like to know its refractive index. The molecule in question is CCCCO [butan-1-ol]
1.3937

What does the record list as refractive index for ClC=C(Cl)Cl [trichloroethene] ?
1.4698

Given C1COCCO1 [1,4-dioxane] , state its recorded refractive index.
1.4145

Looking for the measured refractive index of CCOC(C)=O [ethyl acetate] , can you help?
1.3631

Look at this molecule and give its reported refractive index. CCOC(=O)CC(=O)OCC [diethyl 1,3-propanedioate]
1.4085

Which refractive index value belongs to OCCCl [1-chloro-2-hydroxyethane] ?
1.4326

Given Clc1ccccc1Cl [1,2-dichlorobenzene] , state its recorded refractive index.
1.545

Quick one: refractive index for CC(=O)N(C)C [N,N-dimethylethanamide] ?
1.432

---

study.conditions: 308.15 K; 101 kPa; Liquid
Please use MET for mass density under 1000 kg/m3 and NOT MET for everything else, ties included.

Please state whether mass density is below 1000 kg/m3 for CCOC(=O)CC(=O)OCC [diethyl 1,3-propanedioate]
NOT MET

Dear reviewer, please state whether OCCCl [1-chloro-2-hydroxyethane] has mass density strictly beneath 1000 kg/m3.
NOT MET

Please let me know if CC(=O)N(C)C [N,N-dimethylethanamide] shows mass density below 1000 kg/m3.
MET

# check: mass density < 1000 kg/m3 for CCCCO
MET

Given the entry ClC=C(Cl)Cl , would its reported mass density be below 1000 kg/m3?
NOT MET

Lab note: mass density threshold 1000 kg/m3. Does this compound come in strictly under it? Clc1ccccc1Cl
NOT MET

is_below(mass density, 1000 kg/m3) for CCOC(C)=O [ethyl acetate] ?
MET

---

study.conditions: 298.15 K; 101 kPa; Liquid
Numbers after ± are expanded uncertainties.
reported.metric: speed of sound
Note: state the figure and append the unit.

Could you share which speed of sound value was measured for CCOC(=O)CC(=O)OCC [diethyl 1,3-propanedioate] ?
1304 ± 7 m/s

Endpoint output: speed of sound of ClC=C(Cl)Cl [trichloroethene] . Value?
1027 ± 6 m/s

Which speed of sound is listed for OCCCl [1-chloro-2-hydroxyethane] ?
1358 ± 8 m/s

Please look up its speed of sound: CCCCO [butan-1-ol]
1237 ± 7 m/s

Request the reported speed of sound associated with CCOC(C)=O [ethyl acetate]
1155 ± 7 m/s

I have this molecule here, C1COCCO1 [1,4-dioxane] , and I need its recorded speed of sound.
1345 ± 7 m/s

Which speed of sound is listed for CC(=O)N(C)C [N,N-dimethylethanamide] ?
1458 ± 8 m/s

Give its speed of sound value. Item: Clc1ccccc1Cl [1,2-dichlorobenzene]
1280 ± 7 m/s

---

method.description: refractive index (Na D-line) (dimensionless)
study.conditions: 298.15 K; 101.33 kPa; Liquid
reported.metric: refractive index
Lab note: write the figure by itself, no unit.

If you can, please state the reported refractive index value of C1COCCO1 .
1.4203

Tell me the measured refractive index of CCOC(=O)CC(=O)OCC [diethyl 1,3-propanedioate] , please.
1.4132

Value lookup for refractive index; key = ClC=C(Cl)Cl
1.476

State the recorded refractive index for this entry: CCOC(C)=O [ethyl acetate]
1.3713

Any idea what its refractive index is? The molecule is OCCCl [1-chloro-2-hydroxyethane]
1.4411

Quick one: refractive index for CCCCO ?
1.3983

Data request, read-out refractive index, for Clc1ccccc1Cl
1.5499

Quick one: refractive index for CC(=O)N(C)C [N,N-dimethylethanamide] ?
1.4363

---

study.conditions: 303.15 K; 101 kPa; Liquid
reported.metric: viscosity (mPa·s)
# output: bare number, implied unit mPa·s

Fill in the blank: the reported viscosity of CCOC(C)=O [ethyl acetate] is ____.
0.414

Entry CC(=O)N(C)C [N,N-dimethylethanamide] has what viscosity?
1.154

Consider the compound shown here: OCCCl [1-chloro-2-hydroxyethane] What is its recorded viscosity?
2.669

I have this compound here, Clc1ccccc1Cl , and I need its recorded viscosity.
1.214

What value of viscosity has been reported for the following compound? CCCCO
2.245

Fill in: viscosity of CCOC(=O)CC(=O)OCC [diethyl 1,3-propanedioate] is ___
1.755

Item ClC=C(Cl)Cl has what recorded viscosity?
0.547

---

study.conditions: 298.15 K; 101 kPa; Liquid
± gives the expanded uncertainty stated by the source.
reported.metric: mass density

mass density for C1COCCO1 [1,4-dioxane] ?
1028.6 ± 1.4 kg/m3

Entry CCOC(=O)CC(=O)OCC [diethyl 1,3-propanedioate] has what mass density?
1049.6 ± 1.4 kg/m3

For the molecule shown here, ClC=C(Cl)Cl [trichloroethene] , give the reported mass density.
1455.4 ± 2.5 kg/m3

Which mass density reading was recorded for the molecule CC(=O)N(C)C [N,N-dimethylethanamide] ?
946.8 ± 1.2 kg/m3

Which mass density is reported for this molecule? CCOC(C)=O [ethyl acetate]
894.2 ± 1.2 kg/m3

Look at this molecule and give its reported mass density. Clc1ccccc1Cl [1,2-dichlorobenzene]
1300.9 ± 1.9 kg/m3

Query (molecule): CCCCO [butan-1-ol] ; field requested: mass density
805.8 ± 1 kg/m3

Given the entry OCCCl [1-chloro-2-hydroxyethane] , report its measured mass density.
1200.9 ± 1.7 kg/m3

---

study.conditions: 303.15 K; 101 kPa; Liquid
# strict inequality: mass density < 1000 kg/m3 yields TRUE, everything else yields FALSE

For this molecule, is mass density lower than 1000 kg/m3? ClC=C(Cl)Cl
FALSE

mass density under 1000 kg/m3? Item: CCCCO
TRUE

In the record for OCCCl [1-chloro-2-hydroxyethane] , is mass density less than 1000 kg/m3?
FALSE

Below 1000 kg/m3 on mass density? Entry CCOC(=O)CC(=O)OCC [diethyl 1,3-propanedioate]
FALSE

Hello, I'm reviewing records and need to know if mass density of CCOC(C)=O [ethyl acetate] is below 1000 kg/m3. Could you check?
TRUE

hey, is mass density for CC(=O)N(C)C [N,N-dimethylethanamide] lower than 1000 kg/m3 or not?
TRUE

# strict comparison: is reported mass density < 1000 kg/m3? input = Clc1ccccc1Cl
FALSE

---

study.conditions: 308.15 K; 101 kPa; Liquid
Lab note: anything with viscosity at or over 1 mPa·s counts as condition met; the rest go in condition not met.

hey, is viscosity for this one >= 1 mPa·s? Clc1ccccc1Cl [1,2-dichlorobenzene]
condition met

Is viscosity at least 1 mPa·s? Consider CCCCO [butan-1-ol]
condition met

Please indicate if the recorded viscosity for CCOC(C)=O [ethyl acetate] meets or exceeds 1 mPa·s.
condition not met

viscosity >= 1 mPa·s for ClC=C(Cl)Cl [trichloroethene] ?
condition not met

Has CC(=O)N(C)C [N,N-dimethylethanamide] a recorded viscosity greater than or equal to 1 mPa·s?
condition met

Assess whether reported viscosity for OCCCl [1-chloro-2-hydroxyethane] sits at 1 mPa·s or higher.
condition met

Decide: viscosity of CCOC(=O)CC(=O)OCC [diethyl 1,3-propanedioate] >= 1 mPa·s?
condition met

---

method.description: refractive index (Na D-line) (dimensionless)
study.conditions: 303.15 K; 101.33 kPa; Liquid
Hi there, I'd appreciate the recorded refractive index for every entry that follows.
Number, no unit, nothing else.

Give its refractive index value. Item: CC(=O)N(C)C [N,N-dimethylethanamide]
1.4342

What measured refractive index goes with CCOC(=O)CC(=O)OCC [diethyl 1,3-propanedioate] ?
1.4108

refractive index for ClC=C(Cl)Cl [trichloroethene] ?
1.4729

I am curious: what refractive index value has been reported for CCOC(C)=O [ethyl acetate] ?
1.3673

Data request, read-out refractive index, for C1COCCO1 [1,4-dioxane]
1.4164
